Experiment: 10-beta competent E. coli microbial cell viability qHTS against the NCATS CANVASS Library (AID 1347376)
Conditions: E. coli 10-beta viability, BacTiter-Glo ATP luminescence, overnight; series mostly up to 46.1 µM
Results filed as inconclusive are left out. Activity calls are given as the source filed them. Calls come from the whole dose curve; as a rule, active = well fitted curve in the direction sought with a large enough effect; inconclusive = small, poorly fitted or top-dose-only effect, or effect the other way, or another doubt; inactive = no such curve, though single readings can be large or run the other way.
readout label: outcome

Known results for compounds:
compound	outcome
CC(=O)N[C@H]1CCN2CCC[C@H]12	inactive
O=C(c1ccccc1O)c1[nH]c(Cl)c(Cl)c1-n1c(C(=O)c2ccccc2O)cc(Cl)c1Cl	inactive
CNCCc1ccc(O)cc1	inactive
CC1=CC2CC[C@@H]3[C@@H](C)C[C@H](C)[C@@H](C1)N23 (some centres undefined)	inactive
CCCC[C@@H]1CC[C@H]2CCCC(CCC)N12 (some centres undefined)	inactive

So what does the record say about outcome for CNCCc1ccccc1 ?
inactive

Proceed to CO[C@@H](/C=C/CC/C=C/C(=O)O)[C@@H](O)[C@H](C)/C=C(\C)[C@@H](O)[C@H](C)C(=O)CCCC1CC(=O)NC(=O)C1
inactive

Proceed to COc1ccc(C23Oc4cc(OC)cc(OC)c4[C@](O)([C@H](c4ccccc4)C2C(=O)NCCCCNC(=O)c2ccccc2)[C@@H]3O)cc1 (some centres undefined)
inactive

Proceed to CO[C@H](c1ccccc1)[C@H]1NC(=O)C(C)NC(=O)C(C[C@@H](C)CO)N(C)C(=O)[C@@H](C(O)c2cn(C(C)(C)C3CO3)c3ccccc23)NC(=O)C(C(C)C=C(C)C)NC(=O)C(CC(C)C)N(C)C(=O)C(C(C)C)NC1=O (some centres undefined)
inactive
